Tested on: Vesicular stomatitis virus
Test: Antiviral activity against VSV-infected Vero cells
Format: functional, organism-based
Give measured IC50 for each item. Keep answers brief.

Query the reported IC50 for Vesicular stomatitis virus; item: `O=C(Nc1ccc(-c2nc3cc(C(=O)NC45CC6CC(CC(C6)C4)C5)ccc3[nH]2)cc1)c1ccc(Cl)c(Cl)c1` > 2 µM

Query the reported IC50 for Vesicular stomatitis virus; item: `O=C(Nc1ccc(-c2nc3cc(C(=O)NC45CC6CC(CC(C6)C4)C5)ncc3[nH]2)cc1)c1ccc(Cl)cc1` > 2 µM

Query the reported IC50 for Vesicular stomatitis virus; item: `O=C(NC12CC3CC(CC(C3)C1)C2)c1ccc2[nH]c(-c3ccc(NC(=O)C45CC6CC(CC(C6)C4)C5)cc3)nc2c1` > 2 µM

Query the reported IC50 for Vesicular stomatitis virus; item: O=C(Nc1ccc(-c2nc3cc(NC(=O)C45CC6CC(CC(C6)C4)C5)ncc3[nH]2)cc1)C12CC3CC(C1)C(O)C(C3)C2 (configuration not stated) 1 µM

Query the reported IC50 for Vesicular stomatitis virus; item: `O=C(Nc1ccc(-c2nc3cc(NC(=O)C45CC6CC(CC(C6)C4)C5)ccc3[nH]2)cc1)C12CC3CC(CC(C3)C1)C2` > 2 µM

Query the reported IC50 for Vesicular stomatitis virus; item: `O=C(Nc1ccc(-c2nc3cc(NC(=O)C4CCCCC4)ccc3[nH]2)cc1)C1CCCCC1` 1 µM

Query the reported IC50 for Vesicular stomatitis virus; item: `O=C(NC12CC3CC(CC(C3)C1)C2)c1cc2nc(-c3ccc(NC(=O)C45CC6CC(CC(C6)C4)C5)cc3)[nH]c2cn1` > 2 µM

Query the reported IC50 for Vesicular stomatitis virus; item: `O=C(Nc1ccc(-c2nc3cc(NC(=O)C45CC6CC(CC(C6)C4)C5)ncc3[nH]2)cc1)C12CC3CC(CC(C3)C1)C2` > 2 µM

Query the reported IC50 for Vesicular stomatitis virus; item: `O=C(Nc1ccccn1)c1ccc2[nH]c(-c3ccc(NC(=O)C45CC6CC(CC(C6)C4)C5)cc3F)nc2c1` > 2 µM

Query the reported IC50 for Vesicular stomatitis virus; item: CC(=O)OC1C2CC3CC1CC(C(=O)Nc1ccc(-c4nc5cc(C(=O)Nc6ccccn6)ccc5[nH]4)cc1)(C3)C2 (configuration not stated) > 2 µM

Query the reported IC50 for Vesicular stomatitis virus; item: O=C(Nc1ccccn1)c1ccc2[nH]c(-c3ccc(NC(=O)C45CC6CC(CC(C6)C4)C5)cc3)nc2c1 (stereo in doubt; 1h) > 2 µM

Query the reported IC50 for Vesicular stomatitis virus; item: `O=C(Nc1ccc(-c2nc3cc(NC(=O)C4CCCCC4)ncc3[nH]2)cc1)C1CCCCC1` > 2 µM

Query the reported IC50 for Vesicular stomatitis virus; item: `O=C(Nc1ccc(-c2nc3cc(NC(=O)C4CCCCC4)ccc3[nH]2)cc1)c1ccc(Cl)c(Cl)c1` > 2 µM

Query the reported IC50 for Vesicular stomatitis virus; item: `O=C(Nc1ccccn1)c1ccc2[nH]c(-c3ccc(NC(=O)[C@]45CC6CC(C4)[C@@H](O)C(C6)C5)cc3)nc2c1` > 2 µM

Query the reported IC50 for Vesicular stomatitis virus; item: `O=C(Nc1ccc(-c2nc3cc(C(=O)NC45CC6CC(C4)C(=O)C(C6)C5)ncc3[nH]2)cc1)c1ccc(Cl)cc1` 1 µM

Query the reported IC50 for Vesicular stomatitis virus; item: `O=C(Nc1cc2nc(-c3ccc(NC(=O)C45CC6CC(CC(C6)C4)C5)cc3)[nH]c2cn1)c1ccccn1` 1 µM

Query the reported IC50 for Vesicular stomatitis virus; item: `O=C(NC12CC3CC(C1)C(=O)C(C3)C2)c1cc2nc(-c3ccc(NC(=O)C45CC6CC(CC(O)(C6)C4)C5)cc3)[nH]c2cn1` > 2 µM

Query the reported IC50 for Vesicular stomatitis virus; item: `O=C1C2CC3CC1CC(C(=O)Nc1ccc(-c4nc5cc(NC(=O)C67CC8CC(CC(C8)C6)C7)ncc5[nH]4)cc1)(C3)C2` > 2 µM

Query the reported IC50 for Vesicular stomatitis virus; item: `O=C1C2CC3CC1CC(C(=O)Nc1ccc(-c4nc5cc(NC(=O)C67CC8CC(C6)C(=O)C(C8)C7)ncc5[nH]4)cc1)(C3)C2` > 2 µM

Query the reported IC50 for Vesicular stomatitis virus; item: `O=C(Nc1ccccn1)c1cc2nc(-c3ccc(NC(=O)C45CC6CC(CC(C6)C4)C5)cc3)[nH]c2cn1` > 2 µM

Query the reported IC50 for Vesicular stomatitis virus; item: CC(=O)OC1CCC(C(=O)Nc2ccc(-c3nc4cc(NC(=O)C5CCC(OC(C)=O)CC5)ccc4[nH]3)cc2)CC1 (configuration not stated) 1 µM

Query the reported IC50 for Vesicular stomatitis virus; item: O=C(Nc1ccc(-c2nc3cc(NC(=O)C45CC6CC(C4)C(O)C(C6)C5)ncc3[nH]2)cc1)C12CC3CC(CC(C3)C1)C2 (configuration not stated) > 2 µM

Values compiled from ChEMBL document CHEMBL1138288.
